Target: T1, his-tagged human CDH6 extracellular region protein (hCDH6 ECD-his) (human, UniProt P55285 19-615)
T1 construct: also called Human CDH6-his; hCDH6-his; not shown: his tag
T1 sequence: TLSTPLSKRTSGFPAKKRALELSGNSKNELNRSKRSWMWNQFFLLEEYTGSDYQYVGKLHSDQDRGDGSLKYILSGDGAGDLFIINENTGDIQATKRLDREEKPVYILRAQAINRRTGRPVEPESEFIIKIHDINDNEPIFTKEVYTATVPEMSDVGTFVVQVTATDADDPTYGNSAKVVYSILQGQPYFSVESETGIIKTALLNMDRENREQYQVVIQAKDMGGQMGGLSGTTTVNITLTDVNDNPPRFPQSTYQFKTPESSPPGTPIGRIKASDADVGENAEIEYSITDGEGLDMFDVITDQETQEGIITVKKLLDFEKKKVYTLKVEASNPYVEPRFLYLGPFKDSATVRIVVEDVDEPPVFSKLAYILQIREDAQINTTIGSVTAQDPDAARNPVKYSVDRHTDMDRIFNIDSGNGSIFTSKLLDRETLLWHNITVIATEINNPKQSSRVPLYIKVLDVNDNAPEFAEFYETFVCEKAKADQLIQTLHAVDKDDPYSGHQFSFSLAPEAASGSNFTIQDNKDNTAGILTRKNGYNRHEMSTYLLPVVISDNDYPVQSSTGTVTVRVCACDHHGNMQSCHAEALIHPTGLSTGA
Experiment: ELISA, coated antigen
Measurement Label: Max OD450
Reply with the number, then its unit.

{"columns": ["Binder", "Measurement Label", "Experimental Result"],
 "data": [
  ["CHI-CDH6-1 (antibody, human IgG1, kappa, V domains shown, also called CHI-hCDH6-1; CH1-CDH6-1) VH: QVQLQQPGAELVRPGSSVKLSCKASGYTFTNYWMHWVKQRPIEGLEWIGDIDPSHSETHYTQKFKDKATLTVDKSSSTAYMQLSSLTSEDSAVYYCARGDLGRFDYWGQGTTLTVSS VL: DIVLTQSPASLAVSLGQRATISCRASESVSIHGTHLMHWYQQKSGQPPKLLIYAASNLESGVPARFSGSGSETDFTFNIHPVEEEDAATYFCQQSFEDPWTFGGGTKLEIKR", "Max OD450", "2.23 OD450"],
  ["CHI-CDH6-8 (antibody, human IgG1, kappa, V domains shown, also called chimeric antibody of murine CDH6-8) VH: EVQLQQSGPELVKPGDSVKMSCKASGYTFTDYYMAWIKQNHGKSLEWIGYIYPNNGGTDYNQKFRGKATLTVDKSSSAAYMELHSLTSEDSAVYYCAREIGTLYGDYYAMDYWGQGTSVTVSS VL: DIQMTQSPASLSASVGETVTITCRASENIDSYLAWYQQKQGKSPQLLVYTATLLADGVPSRFSGSGSGTQYSLKINSLQSEDVARYYCQHYYSTPPTFGSGTKLEIKR", "Max OD450", "2.31 OD450"],
  ["CHI-CDH6-6 (antibody, human IgG1, kappa, V domains shown, also called CHI-hCDH6-6; chimeric antibody of murine CDH6-6) VH: EVQLQQSGPELVKPGDSVKMSCKASGYTFTDYYMAWVRQSHRKSLEWIGYIFPNSGGTDYSQKFKGKATLTVDKSSSTVYMELHSLTSEDSAVYYCARELGADYGDYYAMDHWGQGTSVSVSS VL: DIQMTQSPASLSASVGETVTITCRASENIDSYLAWYQQKQGKSPQLLVYSATLLADGVPSRFSGSGSGTQYSLKINSLKSEDVARYYCQHYYRTPPTFGSGTKLEIKR", "Max OD450", "2.18 OD450"],
  ["CHI-CDH6-9 (antibody, human IgG1, kappa, V domains shown, also called chimeric antibody of murine CDH6-9) VH: QVQLQQPGAELVKPGASVKLSCKASGYTFTGYWMHWVRQRPGQGLEWIGEINPNNGGTNCNEQFKNKATLTVDKSSSTAYMQLSSLTSEDSAVFYCTISFGNYLFFDVWGAGTTVTVSS VL: DIQMTQSPASLAASVGETITITCQASENIYFSLAWYQQKQGKSPQLLIYNANTLEDGVPSRFVGSGSGTQYSMKINSIQPEDTATYFCDQTYDFPWTFGGGTKLEIKR", "Max OD450", "2.58 OD450"],
  ["CHI-CDH6-10 (antibody, human IgG1, kappa, V domains shown, also called chimeric antibody of murine CDH6-10) VH: QVQLQQPGAELVKPGTSVKMSCKASGYTFTSDWIAWVKQRPGQGLEWIGDIYPGSGRTHNNEKFNFKATLTVDTSSNTAYMQLSSLTSEDSAVYFCARPMLGRFDYWGQGTTLTVSS VL: DIVLTQSPASLAVSLGQRATISCRASESVSIHGTHLMHWYQQKPGQPPKLLIYAASNLESGVPARFSGSGSETDFTLNIHPVEEEDAATYFCQQSFEDPFTFGSGTKLEIKR", "Max OD450", "2.03 OD450"]
]}

Fill in reported Max OD450 for this entry: CHI-CDH6-11 (antibody, human IgG1, kappa, V domains shown, also called chimeric antibody of murine CDH6-11) VH: QIQLQQSGPELVKPGASVRISCKASGYTFTDYYITWVKLRPGQGLEWIGWIYPGSVNIKYNEKFKGKATLTVDTSSSTAYMQLNSLTSEDSAVYFCARGGYSWFPYWGQGTLVTVSA VL: NIVMTQSPKSMSMSVGERVTLSCKASENVHTYVSWYQQKPEQSPKLLFYGASTRNTGVPDRFTGSGSATDFTLTISSVQAEDLADYYCGQSYSYPYTFGSGTKLEIKR
2.24 OD450

Report Max OD450 for CHI-CDH6-13 (antibody, human IgG1, kappa, V domains shown, also called chimeric antibody of murine CDH6-13) VH: DVQLQESGPGLVKPSQSLSLTCSVTGYSITKDSYWNWIRQFPGSKLEWMGFISYDGSRHYNPSLKNRISITRDTSKNQFFLQLNSVTTEDTATYYCARRDYADYWGQGTTLTVSS VL: QIVLTQSPALMSAFPGEKVTMTCSATSSVSYIYWYQQKPRSSPKPWIYLTSNLASGVPARFSGSGSGTSYSLTINSLEAEDAATYYCQQWSSIPYTFGGGTKLEIKR
2.62 OD450

Answer with the recorded Max OD450 of CHI-CDH6-2 (antibody, human IgG1, kappa, V domains shown, also called chimeric antibody of murine CDH6-2) VH: EVQLQQSGPELVKPGASVRISCKASGYTFTDYYMNWVKQSHGKSLEWIGDIDPNNANTTYNQKFKGKATLTVDKSSSTAYMELRSLTSEDSAVYSCASFGYDVEWFGYWGQGTLVTVSA VL: QIVLTQSPALMSASPGEKVTMTCSASSSVSYMYWYQQKPRSSPKPWIYLTSNLASGVPARFSGSGSGTSYSLTISSMEAEDAATYYCQQWSSNPFTFGSGTKLEIKR only.
2.07 OD450

# return recorded Max OD450 for input NOV0712 (antibody, human IgG1, kappa, V domains shown, Positive control, variable regions from WO2018212136A1; also called positive control anti-human CDH6 antibody) VH: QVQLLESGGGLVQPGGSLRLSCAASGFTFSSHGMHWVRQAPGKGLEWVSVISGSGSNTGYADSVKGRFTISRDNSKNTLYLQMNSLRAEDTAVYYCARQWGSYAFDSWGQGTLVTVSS VL: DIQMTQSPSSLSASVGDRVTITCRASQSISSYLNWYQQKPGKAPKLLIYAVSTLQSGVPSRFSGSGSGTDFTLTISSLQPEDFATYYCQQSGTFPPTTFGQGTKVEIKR
2.32 OD450
